target: human recombinant DPP-IV (Homo sapiens, UniProt P27487); experiment: biochemical
Sequence (P27487 whole entry): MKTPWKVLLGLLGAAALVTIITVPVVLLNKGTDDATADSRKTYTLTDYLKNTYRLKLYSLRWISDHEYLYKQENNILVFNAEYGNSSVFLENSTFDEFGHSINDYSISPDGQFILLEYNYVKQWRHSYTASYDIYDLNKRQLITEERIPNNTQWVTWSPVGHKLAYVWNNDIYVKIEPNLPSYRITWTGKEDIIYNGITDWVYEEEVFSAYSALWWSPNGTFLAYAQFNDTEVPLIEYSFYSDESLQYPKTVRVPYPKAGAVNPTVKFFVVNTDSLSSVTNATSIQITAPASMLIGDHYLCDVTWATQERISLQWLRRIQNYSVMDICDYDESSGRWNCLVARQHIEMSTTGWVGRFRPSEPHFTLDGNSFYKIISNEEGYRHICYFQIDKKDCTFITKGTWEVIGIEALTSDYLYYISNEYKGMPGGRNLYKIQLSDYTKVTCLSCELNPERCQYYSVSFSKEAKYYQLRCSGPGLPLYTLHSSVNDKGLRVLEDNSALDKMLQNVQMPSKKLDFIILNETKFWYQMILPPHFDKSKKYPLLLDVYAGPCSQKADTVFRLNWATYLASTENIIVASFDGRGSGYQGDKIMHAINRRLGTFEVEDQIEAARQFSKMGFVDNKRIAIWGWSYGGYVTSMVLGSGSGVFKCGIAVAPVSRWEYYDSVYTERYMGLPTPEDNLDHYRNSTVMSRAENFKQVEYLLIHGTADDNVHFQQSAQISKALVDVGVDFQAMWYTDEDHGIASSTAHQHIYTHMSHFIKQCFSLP
ATTRIBUTE MEASURED: IC50

Solved cases below.
{"columns": ["COMPOUND", "IC50"],
 "data": [
  ["Cc1nc(-c2ccc(Cl)cc2Cl)cc(C(=O)O)c1CN [regioisomer (XV), reference compound]", "< 10 µM"],
  ["Cc1nc(C(=O)O)cc(-c2ccccc2F)c1CN [(XIV)]", "< 10 µM"]
]}

Next item in the queue.
In: Query IC50 on human recombinant DPP-IV (Homo sapiens, UniProt P27487) for Cc1nc(C(=O)O)cc(-c2ccc(F)cc2)c1CN [(XIII)]
Out: < 10 µM

Source: patent EP2308847B1
